- protocol: Solubility (18 hr vortex mixing at room temperature, filtration, HPLC)
- Format: physicochemical
- measurement-parameters: 20 °C, oil or lipid, thermodynamic from solid; Labrasol; room temperature
measure: solubility at 18 h (mg/mL)

(P) O=C(Cc1ccccc1)Nc1ccc(CCCCc2nnc(NC(=O)Cc3ccccc3)s2)nn1 [Compound 295]
(Q) O=C(Cc1cccc(OC(F)(F)F)c1)Nc1ccc(CCCCc2nnc(NC(=O)Cc3ccccc3)s2)nn1 [Compound 585]
(R) O=C(Cc1cccc(OC(F)(F)F)c1)Nc1ccc(CCCCc2nnc(NC(=O)C(O)c3cccc(Cl)c3)s2)nn1 (centres unmarked) [Compound 447]
(S) CCCC(=O)OCN(C(=O)Cc1ccccc1)c1nnc(CCCCc2ccc(NC(=O)Cc3ccccc3)nn2)s1 [Compound 402]
(T) O=C(Cc1cccc(OC(F)(F)F)c1)Nc1ccc(CCCCc2nnc(NC(=O)[C@@H](O)c3ccccc3)s2)nn1 [Compound 703]
Reorder the items by solubility at 18 h, least to greatest. Put the labels in the requested order and write them down.
P, Q, T, S, R

----------
- experimental-target: recombinant form of Glutaminase 1 (GAC) (Homo sapiens)
- protocol: Recombinant Enzyme Assay - Time Dependence (60 minutes enzyme/compound preincubation)
- Format: biochemical
- measurement-parameters: read-out: GAC Delta N2 IC50 60 min
measure: IC50 (nM)

Solved entries:
compound	result-units	IC50
Cc1cccc(CNC(=O)Nc2nnc(CCCCc3nnc(NC(=O)Cc4ccccc4)s3)s2)c1 [Compound 417]	nM	56
COC(C(=O)Nc1nnc(CCCCc2ccc(NC(=O)Cc3cccc(CNC(=O)OC(C)(C)C)c3)nn2)s1)c1ccccc1 (stereo not drawn) [Compound 509]	nM	10
O=C(Cc1ccccc1)Nc1ccc(CCCCc2nnc(NC(=O)CC3=CN4CCCN=C4S3)s2)nn1 [Compound 511]	nM	580

(1) O=C(Cc1ccccc1)Nc1ccc(CCCCc2nnc(NC(=O)C(O)c3ccc(-c4ccccc4)cc3OCCO)s2)nn1 (stereo not drawn) [Compound 504]
(2) CCCC(=O)OCN(C(=O)Cc1cccc(CC(=O)N2CCC(F)(F)CC2)c1)c1nnc(CCCCc2ccc(NC(=O)Cc3ccccc3)nn2)s1 [Compound 570]
(3) O=C(Nc1ccc(CCCCc2nnc(NC(=O)C(O)c3cccc(Cl)c3)s2)nn1)C(O)c1cccc(Cl)c1 (stereo not drawn) [Compound 446]
(4) CC(C(=O)Nc1nnc(CCCCc2ccc(NC(=O)Cc3cccc(CNC(=O)OCCF)c3)nn2)s1)c1ccccc1 (stereo not drawn) [Compound 591]
(5) CC(C(=O)Nc1ccc(CCCCc2nnc(NC(=O)C(C)c3ccccc3)s2)nn1)c1ccccc1 (stereo not drawn) [Compound 613]
Arrange by IC50, high to low. Labels, ranked as asked.
2, 5, 3, 1, 4
(2: 430 nM, 5: 19 nM, 3: 11 nM, 1: 7 nM, 4: 4 nM)

(P) CN(Cc1cc(CC(=O)Nc2nnc(CCCCc3ccc(NC(=O)Cc4ccccc4)nn3)s2)ccc1F)C(=O)OC(C)(C)C [Compound 569]
(Q) COC(C(=O)Nc1ccc(CCCCc2nnc(NC(=O)Cc3cccc(CNC(=O)OC(C)(C)C)c3)s2)nn1)c1ccccc1 (stereo not drawn) [Compound 508]
(R) NCc1cccc(CC(=O)Nc2nnc(CCCCc3nnc(NC(=O)Cc4ccccc4)s3)s2)c1 [Compound 437]
Please list these in order of increasing IC50. Thank you! Give the order by naming the labels one after another as requested.
P, Q, R

----------
- experimental-target: recombinant form of Glutaminase 1 (GAC) (Homo sapiens)
- protocol: Recombinant Enzyme Assay (GAC coupled to GDH, NADH absorbance, no preincubation)
- Format: biochemical
- measurement-parameters: no preincubation; read-out: GAC Delta N2 IC50 no preinc
pIC50: −log10 of the molar value.
measure: pIC50

compound	experimental-target	measure	number
C=C(C(=O)Nc1nnc(CCCCc2nnc(NC(=O)C(COC(=O)CCN3CCOCC3)c3ccccc3)s2)s1)c1ccccc1 (centres unmarked)	recombinant form of Glutaminase 1 (GAC) (Homo sapiens)	pIC50	6.13
O=C(CCN1CCOCC1)OC(C(=O)Nc1nnc(CCCCc2nnc(NC(=O)C(O)c3cccc(Cl)c3)s2)s1)c1cccc(Cl)c1 (centres unmarked)	recombinant form of Glutaminase 1 (GAC) (Homo sapiens)	pIC50	5.85
O=C(Nc1nnc(CCCCc2nnc(NC(=O)[C@H](O)Cc3ccccc3)s2)s1)[C@H](O)Cc1ccccc1	recombinant form of Glutaminase 1 (GAC) (Homo sapiens)	pIC50	6.15

(1) CC(CO)(CO)C(=O)Nc1nnc(CCCCc2nnc(NC(=O)Cc3cccc(F)c3)s2)s1
(2) O=C(Nc1nnc(CCCCc2nnc(NC(=O)C3Cc4ccccc4O3)s2)s1)C1Cc2ccccc2O1 (centres unmarked)
Would you kindly point out which of 1 and 2 has the smaller pIC50 figure? Kindly give the label for the entry you pick.
2
(2: 5.92, 1: 6.14)

----------
- experimental-target: recombinant form of Glutaminase 1 (GAC) (Homo sapiens)
- protocol: Recombinant Enzyme Assay (GAC coupled to GDH, NADH absorbance, no preincubation)
- Assay type: biochemical
- measurement-parameters: no preincubation; read-out: GAC Delta N2 IC50 no preinc
measure: IC50 (µM)

compound	IC50, µM
O=C(CN1C(=O)OC[C@@H]1c1ccccc1)Nc1nnc(CCSCCc2nnc(NC(=O)CN3C(=O)OC[C@@H]3c3ccccc3)s2)s1	6.9
COc1ccccc1CC(=O)Nc1nnc(CCSCc2nnc(NC(=O)Cc3ccccc3OC)s2)s1	0.12

(I) O=C(Nc1nnc(CCCCc2nnc(NC(=O)C(O)c3cccc(Br)c3)s2)s1)C(O)c1cccc(Br)c1 (stereo not shown)
(II) CC(=O)N[C@@H](C(=O)Nc1nnc(CCSCCc2nnc(NC(=O)[C@H](NC(C)=O)c3ccccc3)s2)s1)c1ccccc1
Between I and II , which one has the lower reported IC50 value? Give the label of your selection.
I

----------
- experimental-target: recombinant form of Glutaminase 1 (GAC) (Homo sapiens, UniProt O94925)
- protocol: Recombinant Enzyme Assay (GAC coupled to GDH, NADH absorbance, no preincubation)
- Assay type: biochemical
- measurement-parameters: no preincubation; read-out: GAC Delta N2 IC50 no preinc
measure: IC50

Sample records with IC50:
molecule	result
CN(C)C(Cc1ccccc1)C(=O)Nc1nnc(CCCCc2nnc(NC(=O)C(Cc3ccccc3)N(C)C)s2)s1 (centres unmarked)	> 20 µM
CC(C)(C)OC(=O)NC(C(=O)Nc1nnc(CCSCCc2nnc(NC(=O)C(NC(=O)OC(C)(C)C)C3CCCC3)s2)s1)C1CCCC1 (centres unmarked)	> 20 µM
COc1ccccc1CC(=O)Nc1nnc(CCSCCc2nnc(NC(=O)C(CO)c3ccccc3OC)s2)s1 (centres unmarked)	0.4 µM
O=C(CC1CCCNC1)Nc1nnc(CCSCCc2nnc(NC(=O)CC3CCCNC3)s2)s1 (centres unmarked)	> 20 µM

Field: next molecule
Briefly, IC50 measured for CC(C)[C@H](NC(=O)OC(C)(C)C)C(=O)Nc1nnc(CCCCc2nnc(NC(=O)[C@@H](NC(=O)OC(C)(C)C)C(C)C)s2)s1 : > 50 µM

----------
- experimental-target: recombinant form of Glutaminase 1 (GAC) (Homo sapiens)
- protocol: Recombinant Enzyme Assay (GAC coupled to GDH, NADH absorbance, no preincubation)
- Format: biochemical
- measurement-parameters: no preincubation; read-out: GAC Delta N2 IC50 no preinc
pIC50: −log10 of the molar value.
measure: pIC50

molecule	number
O=C(Cc1ccco1)Nc1nnc(CCSCCc2nnc(NC(=O)Cc3ccco3)s2)s1 [Compound 82]	6.10

(1) O=C(Cc1c(F)cccc1F)Nc1nnc(CCSCCc2nnc(NC(=O)Cc3c(F)cccc3F)s2)s1 [Compound 298]
(2) O=C(CC1CC1)Nc1nnc(CCCCc2nnc(NC(=O)CC3CC3)s2)s1 [Compound 85]
// which entry has the larger pIC50 value, 1 or 2 ? Give the chosen item's label as your response.
1
(1: 6.14, 2: 5.82)

----------
Measured IC50 by item
- experimental-target: recombinant form of Glutaminase 1 (GAC) (Homo sapiens, UniProt O94925)
- protocol: Recombinant Enzyme Assay (GAC coupled to GDH, NADH absorbance, no preincubation)
- Type: biochemical
- measurement-parameters: no preincubation; read-out: GAC Delta N2 IC50 no preinc

Below: 5 molecules and their reported IC50.
molecule	result
CCCC(=O)OCN(C(=O)Cc1ccccc1)c1nnc(CCSCCc2nnc(NC(=O)Cc3ccccc3)s2)s1	> 50 µM
CC1(C)O[C@H](C(=O)Nc2nnc(CCCCc3nnc(NC(=O)[C@H]4OC(C)(C)O[C@@H]4c4ccccc4)s3)s2)[C@@H](c2ccccc2)O1	> 20 µM
CC[C@@](O)(C(=O)Nc1nnc(CCSCCc2nnc(NC(=O)[C@](O)(CC)c3ccccc3)s2)s1)c1ccccc1	> 20 µM
CC(C)(C)OC(=O)Nc1ccc(CC(=O)Nc2nnc(CCSCCc3nnc(NC(=O)Cc4ccc(NC(=O)OC(C)(C)C)cc4)s3)s2)cc1	> 20 µM
CC(C)[C@H](NC(=O)OC(C)(C)C)C(=O)OCC(C(=O)Nc1nnc(CCCCc2nnc(NC(=O)C(COC(=O)[C@@H](NC(=O)OC(C)(C)C)C(C)C)c3ccccc3)s2)s1)c1ccccc1 (stereo partly drawn)	> 20 µM

Would you kindly look at the next entry?
# IC50 of O=C(Nc1nnc(CCSCCc2nnc(NC(=O)C3CCOCC3)s2)s1)C1CCOCC1 = > 20 µM
